Test: Cytotoxicity activity against human HepG2 cells assessed by CellTiter-Glo luminescent cell viability assay.
Format: toxicity, cell-based
Set-up: assay stage confirmatory assay, source tissue liver
Conditions: HepG2 cells, read-out: IC50 relative
Activity calls are given as the source filed them. No rule for the calls is given here.
Would you mind answering with one of these outcomes? t for active, f for inactive

Exercise: Tell me the recorded outcome of this test for `CC(C)(O)CNc1ncc(-c2ccnc(Nc3ccnc(Cl)c3)n2)c(CC2CC2)n1` .
Solution: t

Exercise: Tell me the recorded outcome of this test for `O=c1c2ccccc2sn1-c1ccccc1` .
Solution: t

Exercise: Tell me the recorded outcome of this test for CC1CCc2c(sc3ncnc(NN)c23)C1 (configuration not stated) .
Solution: f

Exercise: Tell me the recorded outcome of this test for `NC1CCN(S(=O)(=O)c2ccc([C@H]3[C@@H]4CCCC[C@@H]43)cc2)CC1` .
Solution: t

Exercise: Tell me the recorded outcome of this test for `Oc1cc(-c2nc(-c3ccccc3)[nH]c2-c2ccncc2)ccc1Cl` .
Solution: t

Exercise: Tell me the recorded outcome of this test for `COc1cc(C(=O)NC2CCN(C)CC2)ccc1Nc1ncc2c(n1)N(C1CCCC1)CC(F)(F)C(=O)N2C` .
Solution: t

Exercise: Tell me the recorded outcome of this test for Cc1cc(OCC(O)CN2CCCCC2)cc(C)c1Cl (configuration not stated) .
Solution: t

Exercise: Tell me the recorded outcome of this test for `O=C(c1c[nH]c(-c2ccccn2)c1)c1ccccc1O` .
Solution: f

Exercise: Tell me the recorded outcome of this test for `Oc1ccc2[nH]ncc2c1Br` .
Solution: t

Exercise: Tell me the recorded outcome of this test for `CCc1ccc(NC(=O)Nc2ccc3c(c2)N(S(C)(=O)=O)CC3)cc1` .
Solution: t

Exercise: Tell me the recorded outcome of this test for `CNc1snc(C)c1C(=O)N[C@@H](C)c1ccc2c(c1)OCCCO2` .
Solution: t

Exercise: Tell me the recorded outcome of this test for `CCS(=O)(=O)Nc1ccc2c(c1)/C(=C(/Nc1ccc(CN3CCCCC3)cc1)c1ccccc1)C(=O)N2` .
Solution: t

Exercise: Tell me the recorded outcome of this test for `CCOc1ccc(CN2CCN(C(=O)c3ccc(-c4ncon4)cc3)CC2)cc1` .
Solution: t

Exercise: Tell me the recorded outcome of this test for `CNC(=O)c1c(N)sc2c1-c1ccccc1C2` .
Solution: f

Exercise: Tell me the recorded outcome of this test for `CN(C)CCNCc1cccc(OCc2ccc(F)cc2)c1` .
Solution: f

Exercise: Tell me the recorded outcome of this test for `Cc1nnsc1C(=O)Nc1ccc(-n2nc(C(F)(F)F)cc2C(F)(F)F)cc1` .
Solution: t

Exercise: Tell me the recorded outcome of this test for O=C(CCC1CCCN(c2cc(NC3CC3)ncn2)C1)N1CCN(c2ccc(F)cc2)CC1 (configuration not stated) .
Solution: t

Exercise: Tell me the recorded outcome of this test for `NCC1CCN(c2nccc(-c3ccc4ccccc4c3)n2)CC1` .
Solution: t

Exercise: Tell me the recorded outcome of this test for `O=C(CN1C(=O)COc2ccc(Cl)cc21)N1CCC(c2c[nH]c3ncccc23)CC1` .
Solution: t

Exercise: Tell me the recorded outcome of this test for `CCCc1cc(C)[nH]c(=O)c1CNC(=O)c1cc(-c2ccnc(N3CCN(C)CC3)c2)cc2c1cnn2C(C)C` .
Solution: t

Exercise: Tell me the recorded outcome of this test for `CS(=O)(=O)c1cccc(CNc2nc(Nc3ccc4c(c3)CCC(=O)N4)ncc2C(F)(F)F)c1` .
Solution: t

Exercise: Tell me the recorded outcome of this test for `Cc1c(C(=O)Nc2ncccc2O)oc2ccccc12` .
Solution: t

* * *

Test: Cytotoxicity activity against human HepG2 cells assessed by CellTiter-Glo luminescent cell viability assay.
Format: toxicity, cell-based
Set-up: assay stage confirmatory assay, source tissue liver
Settings: HepG2 cells, read-out: IC50 relative
Active and inactive are the calls of the source. The rule behind the calls is not given here.
Would you mind answering with one of these outcomes? 1 (yes) (active), 0 (no) (inactive)

Exercise: Tell me the recorded outcome of this test for COc1cc(C[C@H]2C(=O)OC[C@@H]2Cc2ccc(OC)c(OC)c2)ccc1O [ARCTIGENIN] .
Solution: 1 (yes)

Exercise: Tell me the recorded outcome of this test for `CN(C)/C=C/C=C/C=C/C1=[N+](C)c2ccccc2C1(C)C` .
Solution: 1 (yes)

Exercise: Tell me the recorded outcome of this test for `CC(=O)c1ccc(N2CCN(S(=O)(=O)c3ccc4onc(C(=O)N5CCCC5)c4c3)CC2)cc1` .
Solution: 1 (yes)

Exercise: Tell me the recorded outcome of this test for `CCCN1CCC(NC(=O)c2nn(-c3cccc(Cl)c3)nc2C)CC1` .
Solution: 0 (no)

Exercise: Tell me the recorded outcome of this test for `c1ccc(-c2cn3c(n2)CCc2ccc4cccnc4c2-3)cc1` .
Solution: 1 (yes)

* * *

Tested on: HepG2
Test: Cytotoxicity activity against human HepG2 cells assessed by CellTiter-Glo luminescent cell viability assay.
Type: toxicity, cell-based
Parameters: assay stage confirmatory assay, source tissue liver
Settings: hepg2, read-out: IC50 relative
Active and inactive are the calls of the source. No rule for the calls is given here.
Would you mind answering with one of these outcomes? active, inactive

Exercise: Tell me the recorded outcome of this test for COc1cc(/C=C/C(=O)CC(=O)/C=C/c2ccc(O)c(OC)c2)ccc1O [CURCUMIN] .
Solution: active

Exercise: Tell me the recorded outcome of this test for CN1CCN(c2ccc3nc(-c4c(N)c5c(F)cccc5[nH]c4=O)[nH]c3c2)CC1 [DOVITINIB] .
Solution: active

Exercise: Tell me the recorded outcome of this test for `Cc1ccc(-n2sc3ccccc3c2=O)cc1` .
Solution: active

Exercise: Tell me the recorded outcome of this test for `O=C1C(Cl)=C(NCCN2CCOCC2)C(=O)c2ncccc21` .
Solution: active

Exercise: Tell me the recorded outcome of this test for O=C1C(=O)c2ccccc2-c2ccccc21 [9,10-PHENANTHRENEQUINONE] .
Solution: active

Exercise: Tell me the recorded outcome of this test for `O=c1c2ccccc2sn1-c1ccccc1` .
Solution: inactive

* * *

Test: Cytotoxicity activity against human HepG2 cells assessed by CellTiter-Glo luminescent cell viability assay.
Assay type: toxicity, cell-based
Parameters: assay stage confirmatory assay, source tissue liver
Details: HepG2 cells, read-out: IC50 relative
Active and inactive are the calls of the source. No rule for the calls is given here.
Would you mind answering with one of these outcomes? T (active), F (inactive)

Exercise: Tell me the recorded outcome of this test for `C[C@@H]1CNCCN1S(=O)(=O)c1cccc(Br)c1` .
Solution: F

Exercise: Tell me the recorded outcome of this test for CN(C)CC1(O)CCCN(Cc2cc3ccccc3n2C)C1 (stereo unspecified) .
Solution: T

Exercise: Tell me the recorded outcome of this test for [O-][n+]1ccccc1S [PYRITHIONE] .
Solution: T

Exercise: Tell me the recorded outcome of this test for `COc1cc(N2CCN(C)CC2)ccc1Nc1ncc2c(n1)N(C1CCC1)C(=O)N(c1c(C)cccc1C)C2` .
Solution: T

Exercise: Tell me the recorded outcome of this test for `Cc1ccc(C)c(N2CCN(CCCNC(=O)C3CCN(c4ccc5nnc(C)n5n4)CC3)CC2)c1` .
Solution: T

Exercise: Tell me the recorded outcome of this test for `COC(=O)[C@H](CC(C)C)NC(=O)c1ccc(NC[C@@H](N)CS)cc1-c1cccc2ccccc12` .
Solution: F

* * *

Test: Cytotoxicity activity against human HepG2 cells assessed by CellTiter-Glo luminescent cell viability assay.
Type: toxicity, cell-based
Design: assay stage confirmatory assay, source tissue liver
Details: HepG2 cells, read-out: IC50 relative
Structures can show the parent of a compound that is named as a salt. Calls of active or inactive are those of the source. No rule for the calls is given here.
Would you mind answering with one of these outcomes? Y for active, N for inactive

Exercise: Tell me the recorded outcome of this test for `CCC(=O)Nc1ccc(Nc2nc(C)cc(N(CC)CC)n2)cc1` .
Solution: Y

Exercise: Tell me the recorded outcome of this test for O=c1cc(-c2ccc(O)c(O)c2)oc2cc(O)cc(O)c12 [LUTEOLIN] .
Solution: Y

Exercise: Tell me the recorded outcome of this test for `CCN(C)C[C@H]1CCN(CCCC2CCCCC2)C1` .
Solution: Y

Exercise: Tell me the recorded outcome of this test for `c1ccc2c(c1)OC[C@H](CNc1ncnc3sccc13)O2` .
Solution: Y

Exercise: Tell me the recorded outcome of this test for CCOC(=O)N1CCC(CN(Cc2ccc(Cl)cc2)Cc2ccc([N+](=O)[O-])s2)C1 (centres undefined) [SR9009] .
Solution: N

Exercise: Tell me the recorded outcome of this test for `O=C(COc1ccc(F)cc1)N1CCN(c2ncnc3c(F)cccc23)CC1` .
Solution: Y

Exercise: Tell me the recorded outcome of this test for `Cc1cnc(Nc2ccc(F)cc2Cl)nc1-c1c[nH]c(C(=O)N[C@H](CO)c2cccc(Cl)c2)c1` .
Solution: Y

Exercise: Tell me the recorded outcome of this test for CN[C@H](C(=O)N[C@H](C(=O)N(C)[C@H](/C=C(\C)C(=O)O)C(C)C)C(C)(C)C)C(C)(C)c1ccccc1 [TALTOBULIN] .
Solution: Y

Exercise: Tell me the recorded outcome of this test for CO[C@]1(C(=O)N[C@@H](C)c2ccc(-n3cc(F)cn3)nc2)CC[C@H](c2nc(C)cc(Nc3cc(C)[nH]n3)n2)CC1 [PRALSETINIB] .
Solution: Y

Exercise: Tell me the recorded outcome of this test for `COCC1CCN(Cc2ccc(C(C)C)cc(O)c2=O)CC1` .
Solution: Y

Exercise: Tell me the recorded outcome of this test for `CCNC(=O)c1[nH]nc(-c2cc(Cl)c(O)cc2O)c1-c1ccc(OC)cc1` .
Solution: Y

Exercise: Tell me the recorded outcome of this test for CCc1cc2c(cc1N1CCC(N3CCOCC3)CC1)C(C)(C)c1[nH]c3cc(C#N)ccc3c1C2=O [ALECTINIB] .
Solution: N

Exercise: Tell me the recorded outcome of this test for C[C@@H](Oc1ccc2[nH]nc(/C=C/c3cnn(CCO)c3)c2c1)c1c(Cl)cncc1Cl [LY-2874455] .
Solution: Y

Exercise: Tell me the recorded outcome of this test for `NC(=O)c1cnc(NCCc2ccc(O)c(Cl)c2)nc1NCc1ccccc1` .
Solution: Y

Exercise: Tell me the recorded outcome of this test for `Cc1cccc2nc(C(=O)Nc3ccc(S(=O)(=O)Nc4nccs4)cc3)cn12` .
Solution: N

Exercise: Tell me the recorded outcome of this test for `CCN1CCN(CCCNC(=O)c2cccc(NC(=O)c3nnc(COc4ccccc4)s3)c2)CC1` .
Solution: Y

Exercise: Tell me the recorded outcome of this test for `CCC(=O)Nc1cccc(Oc2nc(Nc3ccc(N4CCN(C)CC4)cc3OC)ncc2Cl)c1` .
Solution: Y

Exercise: Tell me the recorded outcome of this test for `CCn1c(Cn2ncc(Cl)c(Cl)c2=O)nc2cc(F)ccc21` .
Solution: Y

Exercise: Tell me the recorded outcome of this test for `Cc1ccc(NC(=O)c2nc(S(C)(=O)=O)ncc2Br)cc1` .
Solution: Y

Exercise: Tell me the recorded outcome of this test for `CN(C)C(=O)c1cccc(CN(C)c2ccccc2CO)c1` .
Solution: Y

Exercise: Tell me the recorded outcome of this test for `O=C(Nc1nnc(-c2ccccc2)o1)c1cccc(S(=O)(=O)N2CCOCC2)c1` .
Solution: Y

Exercise: Tell me the recorded outcome of this test for `CCCN1CCN(CCCNC(=O)C2CCN(c3nc(-c4ccc(OC)cc4)no3)CC2)CC1` .
Solution: Y

Exercise: Tell me the recorded outcome of this test for `O=S(=O)(c1ccccc1)N1CCN(c2ccc(Nc3ccncc3)nn2)CC1` .
Solution: N

Exercise: Tell me the recorded outcome of this test for `CC(C)c1cc(C(=O)NCc2ccc(N3CCO[C@@H](C)C3)nc2)n[nH]1` .
Solution: Y

Exercise: Tell me the recorded outcome of this test for `O=C1CCCN1c1ccc(S(=O)(=O)Nc2cccc3cccnc23)cc1` .
Solution: Y

Exercise: Tell me the recorded outcome of this test for `CCCN(CCC)CCNC(=O)Cn1cnc2onc(-c3ccc(Cl)cc3)c2c1=O` .
Solution: Y

Exercise: Tell me the recorded outcome of this test for `O=C(Nc1ccc(O)cc1)c1cnn(Cc2ccccc2Cl)c1` .
Solution: Y

Exercise: Tell me the recorded outcome of this test for CCN(CC)CCNC(=O)C1CCCN(c2ncc(-c3ccc(C)cc3)cn2)C1 (centres undefined) .
Solution: Y

Exercise: Tell me the recorded outcome of this test for `COc1ccc(OC[C@@H](O)CN(C)Cc2ccc(C)o2)c(C(C)(C)C)c1` .
Solution: N

Exercise: Tell me the recorded outcome of this test for `CC(C)(C)c1n[nH]c2c(-c3nc4ccccc4s3)c(N)nn2c1=O` .
Solution: N

Exercise: Tell me the recorded outcome of this test for CCOC(=O)C(C)Oc1cccc2c(=O)n(CC(=O)Nc3ccc4c(c3)OCCO4)ccc12 (centres undefined) .
Solution: N

Exercise: Tell me the recorded outcome of this test for `CCN(C(=O)c1ccc(-n2ccnc2)nc1)S(=O)(=O)c1ccc(C)cc1` .
Solution: N

Exercise: Tell me the recorded outcome of this test for `CC[C@@](NC(=O)c1csc(-c2ccoc2)n1)(C(N)=O)C(C)C` .
Solution: Y

Exercise: Tell me the recorded outcome of this test for `CC(=O)N1CCCSc2ccc(S(=O)(=O)N3CCN(c4ccc(F)cc4)CC3)cc21` .
Solution: Y

Exercise: Tell me the recorded outcome of this test for CC[C@H]1CN2CCc3cc(OC)c(OC)cc3[C@@H]2C[C@@H]1C[C@H]1NCCc2cc(OC)c(OC)cc21 [EMETINE HYDROCHLORIDE] .
Solution: Y

Exercise: Tell me the recorded outcome of this test for CC1(C)CC(=O)c2c(C(F)(F)F)nn(-c3ccc(C(N)=O)c(N[C@H]4CC[C@H](O)CC4)c3)c2C1 [SNX-2112] .
Solution: Y

Exercise: Tell me the recorded outcome of this test for CC(C)n1c(/C=C/[C@@H](O)C[C@@H](O)CC(=O)O)c(-c2ccc(F)cc2)c2ccccc21 [LESCOL] .
Solution: Y

Exercise: Tell me the recorded outcome of this test for `CC(C)(C)c1ccc(S(=O)(=O)NCc2ccc(C(=O)Nc3cccnc3)cc2)cc1` .
Solution: Y

Exercise: Tell me the recorded outcome of this test for `OCCCNc1cc(-c2ccnc(Nc3cccc(Cl)c3)n2)ccn1` .
Solution: Y

Data credit: ChEMBL document CHEMBL5303711
